# credit: paper PMC11876601

System: Colo-357
Assay summary: cells
Parameters: ATPlite luminescence viability of PDAC cell lines, 11-dose single-agent curves, 4-parameter fit
Test settings: Homo sapiens, COLO357, 72 h, read-out: EC50 [nM]
Source text: Afterward, small amounts were transferred to 384-well intermediate plates (Greiner Bio-One GmbH, Germany). […] Next, we analyzed the drug sensitivity of immortalized duct cell line HPDE to detect effects unrelated to pancreatic cancer.
Readout label: EC50 (nM)

1. CC(=O)c1cc2c(o1)C(=O)c1ccccc1C2=O [Napabucasin]
2. O=C1NC(=O)[C@@H](c2cn3c4c(cccc24)CCC3)[C@@H]1c1c[nH]c2ccccc12 [Tivantinib]
3. Cc1nc(-c2cn3c(n2)-c2ccc(-c4cnn(C(C)(C)C(N)=O)c4)cc2OCC3)n(C(C)C)n1 [Taselisib]
4. C=CC(=O)Nc1cc(Nc2nccc(-c3cn(C)c4ccccc34)n2)c(OC)cc1N(C)CCN(C)C [Osimertinib]
5. C#Cc1cccc(Nc2ncnc3cc4c(cc23)OCCOCCOCCO4)c1 [Icotinib]
Order all 5 entries above by recorded EC50, highest first, lowest last. Your task in answering is to list the labels in the requested order.
1, 5, 2, 4, 3
(1: 6740 nM, 5: 2260 nM, 2: 536 nM, 4: 347 nM, 3: 27.1 nM)

I. Cc1cnc(Nc2ccc(OCCN3CCCC3)cc2)nc1Nc1cccc(S(=O)(=O)NC(C)(C)C)c1 [Fedratinib]
II. O=C(/C=C\n1cnc(-c2cc(C(F)(F)F)cc(C(F)(F)F)c2)n1)NNc1cnccn1 [Selinexor]
Response body: label of entry with the larger EC50; valid values I , II . Respond with the label that goes with your answer.
I

====

Test system: FAMPAC
Assay summary: cells
Parameters: ATPlite luminescence viability of PDAC cell lines, 11-dose single-agent curves, 4-parameter fit
Test settings: 72 h, read-out: EC50 [nM]
Readout label: EC50 (nM)
Value expressed in nM; do not type the unit.

Cc1cc(Nc2ncc(Cl)c(Nc3ccccc3S(=O)(=O)C(C)C)n2)c(OC(C)C)cc1C1CCNCC1    2770
CN1CCN(c2ccc(C(=O)Nc3n[nH]c4ccc(Cc5cc(F)cc(F)c5)cc34)c(NC3CCOCC3)c2)CC1    5900
O=C(Cc1ccc(-c2ccc(OCCN3CCOCC3)cc2)cn1)NCc1ccccc1    33.1
O=C(Nc1nc2cccc(-c3ccc(CN4CCS(=O)(=O)CC4)cc3)n2n1)C1CC1    8160

// EC50 lookup, key: `Cc1cnc(Nc2ccc(OCCN3CCCC3)cc2)nc1Nc1cccc(S(=O)(=O)NC(C)(C)C)c1`
1010

// EC50 lookup, key: `NC(=O)c1cccc2cn(-c3ccc([C@@H]4CCCNC4)cc3)nc12`
3370

// EC50 lookup, key: `C#Cc1cccc(Nc2ncnc3cc(OCCOC)c(OCCOC)cc23)c1`
3940

// EC50 lookup, key: `CCN1C(=O)N(c2c(F)c(OC)cc(OC)c2F)Cc2cnc3[nH]c(CN4CCOCC4)cc3c21`
3320

====

Entries and their measured EC50 follow.
System: FAMPAC
Assay summary: cells
Parameters: ATPlite luminescence viability of PDAC cell lines, 11-dose single-agent curves, 4-parameter fit
Test settings: 72 h, read-out: EC50 [nM]
Value expressed in nM; do not type the unit.

Worked cases, EC50 given:
CC(=O)Nc1cccc(-n2c(=O)n(C3CC3)c(=O)c3c(Nc4ccc(I)cc4F)n(C)c(=O)c(C)c32)c1    9.21
Cc1nc(Nc2ncc(C(=O)Nc3c(C)cccc3Cl)s2)cc(N2CCN(CCO)CC2)n1    48.5
Cn1cnc2c(F)c(Nc3ccc(Br)cc3F)c(C(=O)NOCCO)cc21    2430
Cn1ncnc1[C@H]1c2n[nH]c(=O)c3cc(F)cc(c23)N[C@@H]1c1ccc(F)cc1    693
COc1cc(Nc2c(C#N)cnc3cc(OCCCN4CCN(C)CC4)c(OC)cc23)c(Cl)cc1Cl    3030

// EC50 lookup, key: `COc1cc2c(Oc3ccc4[nH]c(C)cc4c3F)ccnc2cc1OCC1(N)CC1`
1580

// EC50 lookup, key: O=C1NC(=O)[C@@H](c2cn3c4c(cccc24)CCC3)[C@@H]1c1c[nH]c2ccccc12 [Tivantinib]
317

// EC50 lookup, key: `CC1(COc2ccc3c(c2)ncn3-c2ccc3cccc(N4CCC(N)CC4)c3n2)COC1`
3340

// EC50 lookup, key: `Cc1ccc(C(=O)Nc2ccc(CN3CCN(C)CC3)c(C(F)(F)F)c2)cc1C#Cc1cnc2cccnn12`
830

// EC50 lookup, key: `O=C(c1cc(Cc2n[nH]c(=O)c3ccccc23)ccc1F)N1CCN(C(=O)C2CC2)CC1`
8230

// EC50 lookup, key: `O=C(c1ccc(F)c(F)c1Nc1ccc(I)cc1F)N1CC(O)([C@@H]2CCCCN2)C1`
39.5

// EC50 lookup, key: `COCc1c(-c2cc3cc(C)cc(OC)c3s2)c2c(N)ncnn2c1CN1CCNC(=O)C1`
3300

// EC50 lookup, key: `CCn1c(=O)c(-c2cc(NC(=O)Nc3ccccc3)c(F)cc2Br)cc2cnc(NC)cc21`
912
